The reported measurements were obtained from ChEMBL document CHEMBL4184213.

# System: Orexin/Hypocretin receptor type 1 (Homo sapiens, UniProt O43613)
# Sequence (O43613 whole entry): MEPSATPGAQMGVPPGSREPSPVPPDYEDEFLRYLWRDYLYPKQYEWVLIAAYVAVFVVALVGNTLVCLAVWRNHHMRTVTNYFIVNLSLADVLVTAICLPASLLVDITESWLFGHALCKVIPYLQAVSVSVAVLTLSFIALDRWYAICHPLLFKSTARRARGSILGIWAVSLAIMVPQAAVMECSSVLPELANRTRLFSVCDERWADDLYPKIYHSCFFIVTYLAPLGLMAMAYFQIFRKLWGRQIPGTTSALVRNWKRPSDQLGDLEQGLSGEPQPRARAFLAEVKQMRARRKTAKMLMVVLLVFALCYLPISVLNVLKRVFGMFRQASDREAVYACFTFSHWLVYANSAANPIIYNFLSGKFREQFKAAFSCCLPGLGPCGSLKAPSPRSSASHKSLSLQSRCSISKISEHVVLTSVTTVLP
# Experiment description: Antagonist activity at human OX1R expressed in CHOK1 cells assessed as inhibition of orexin A-induced intracellular Ca2+ release preincubated for 15 mins followed by orexin A addition by Fura 2-AM dye based fluorescence assay
Measurement label: Ki (nM)
Answers are plain numbers, in nM.

The examples below pair each entry with its known result.
INSERT INTO results (cpd_smiles, unit_text, result_value) VALUES
  ('COc1ccc2c3c1O[C@H]1[C@H](N(C)C(=O)/C=C/c4ccoc4)CC=C4[C@@H](C2)N(S(=O)(=O)c2ccccc2)CC[C@]431', 'nM', 2.06),
  ('COc1ccc2c3c1O[C@H]1[C@@H](N(C)C(=O)/C=C/c4ccoc4)CC=C4[C@@H](C2)N(S(=O)(=O)c2ccccc2)CC[C@]431', 'nM', 17.8),
  ('COc1ccc2c3c1O[C@H]1[C@@H](N(C)C(=O)/C=C/c4ccoc4)CC[C@H]4[C@@H](C2)N(S(=O)(=O)c2ccccc2)CC[C@@]341', 'nM', 187);

Would you mind telling me what Ki value was observed for COc1ccc2c3c1O[C@H]1[C@H](N(C)C(=O)/C=C/c4ccoc4)CC[C@H]4[C@@H](C2)N(S(=O)(=O)c2ccccc2)CC[C@@]341 ? 1.97

---

# System: Orexin receptor type 2 (Homo sapiens, UniProt O43614)
# Sequence (O43614 whole entry): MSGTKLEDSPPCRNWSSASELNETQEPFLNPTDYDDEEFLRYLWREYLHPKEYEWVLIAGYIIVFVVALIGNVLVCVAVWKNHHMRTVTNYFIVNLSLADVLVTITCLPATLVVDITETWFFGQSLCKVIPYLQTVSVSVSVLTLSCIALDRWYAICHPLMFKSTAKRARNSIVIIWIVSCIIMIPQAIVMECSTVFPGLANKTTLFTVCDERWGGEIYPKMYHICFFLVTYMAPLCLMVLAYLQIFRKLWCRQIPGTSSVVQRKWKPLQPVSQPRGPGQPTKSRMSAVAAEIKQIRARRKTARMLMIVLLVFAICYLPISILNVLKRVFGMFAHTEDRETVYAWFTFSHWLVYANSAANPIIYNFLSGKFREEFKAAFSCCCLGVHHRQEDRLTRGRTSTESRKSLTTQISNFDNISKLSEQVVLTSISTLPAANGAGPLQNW
# Experiment description: Antagonist activity at human OX2R expressed in CHOK1 cells assessed as inhibition of orexin A-induced intracellular Ca2+ release preincubated for 15 mins followed by orexin A addition by Fura 2-AM dye based fluorescence assay
pKi: −log10 of the molar value.
Assignment: determine reported pKi for the given compounds.

INSERT INTO results (cpd_smiles, system, measurement_label, result_value) VALUES
  ('COc1ccc2c3c1O[C@H]1[C@H](N(C)C(=O)/C=C/c4ccoc4)CC=C4[C@@H](C2)N(S(=O)(=O)c2ccccc2)CC[C@]431', 'Orexin receptor type 2 (Homo sapiens, UniProt O43614)', 'pKi', '< 5.00'),
  ('COc1ccc2c3c1O[C@H]1[C@H](N(C)C(=O)/C=C/c4ccoc4)CC[C@H]4[C@@H](C2)N(S(=O)(=O)c2ccccc2)CC[C@@]341', 'Orexin receptor type 2 (Homo sapiens, UniProt O43614)', 'pKi', '< 5.00');

Read the next record carefully.
Would you mind telling me what pKi value was observed for COc1ccc2c3c1O[C@H]1[C@@H](N(C)C(=O)/C=C/c4ccoc4)CC[C@@]4(O)[C@@H](C2)N(S(=O)(=O)c2ccccc2)CC[C@]314 ? < 5.00
